# Tested system: NMDA receptor (GRIN1/GRIN2A subunits) (Homo sapiens, UniProt Q05586+Q12879)
# Construct: expressed in transfected cells
# Sequence (Q12879 23-1464, other chains not shown): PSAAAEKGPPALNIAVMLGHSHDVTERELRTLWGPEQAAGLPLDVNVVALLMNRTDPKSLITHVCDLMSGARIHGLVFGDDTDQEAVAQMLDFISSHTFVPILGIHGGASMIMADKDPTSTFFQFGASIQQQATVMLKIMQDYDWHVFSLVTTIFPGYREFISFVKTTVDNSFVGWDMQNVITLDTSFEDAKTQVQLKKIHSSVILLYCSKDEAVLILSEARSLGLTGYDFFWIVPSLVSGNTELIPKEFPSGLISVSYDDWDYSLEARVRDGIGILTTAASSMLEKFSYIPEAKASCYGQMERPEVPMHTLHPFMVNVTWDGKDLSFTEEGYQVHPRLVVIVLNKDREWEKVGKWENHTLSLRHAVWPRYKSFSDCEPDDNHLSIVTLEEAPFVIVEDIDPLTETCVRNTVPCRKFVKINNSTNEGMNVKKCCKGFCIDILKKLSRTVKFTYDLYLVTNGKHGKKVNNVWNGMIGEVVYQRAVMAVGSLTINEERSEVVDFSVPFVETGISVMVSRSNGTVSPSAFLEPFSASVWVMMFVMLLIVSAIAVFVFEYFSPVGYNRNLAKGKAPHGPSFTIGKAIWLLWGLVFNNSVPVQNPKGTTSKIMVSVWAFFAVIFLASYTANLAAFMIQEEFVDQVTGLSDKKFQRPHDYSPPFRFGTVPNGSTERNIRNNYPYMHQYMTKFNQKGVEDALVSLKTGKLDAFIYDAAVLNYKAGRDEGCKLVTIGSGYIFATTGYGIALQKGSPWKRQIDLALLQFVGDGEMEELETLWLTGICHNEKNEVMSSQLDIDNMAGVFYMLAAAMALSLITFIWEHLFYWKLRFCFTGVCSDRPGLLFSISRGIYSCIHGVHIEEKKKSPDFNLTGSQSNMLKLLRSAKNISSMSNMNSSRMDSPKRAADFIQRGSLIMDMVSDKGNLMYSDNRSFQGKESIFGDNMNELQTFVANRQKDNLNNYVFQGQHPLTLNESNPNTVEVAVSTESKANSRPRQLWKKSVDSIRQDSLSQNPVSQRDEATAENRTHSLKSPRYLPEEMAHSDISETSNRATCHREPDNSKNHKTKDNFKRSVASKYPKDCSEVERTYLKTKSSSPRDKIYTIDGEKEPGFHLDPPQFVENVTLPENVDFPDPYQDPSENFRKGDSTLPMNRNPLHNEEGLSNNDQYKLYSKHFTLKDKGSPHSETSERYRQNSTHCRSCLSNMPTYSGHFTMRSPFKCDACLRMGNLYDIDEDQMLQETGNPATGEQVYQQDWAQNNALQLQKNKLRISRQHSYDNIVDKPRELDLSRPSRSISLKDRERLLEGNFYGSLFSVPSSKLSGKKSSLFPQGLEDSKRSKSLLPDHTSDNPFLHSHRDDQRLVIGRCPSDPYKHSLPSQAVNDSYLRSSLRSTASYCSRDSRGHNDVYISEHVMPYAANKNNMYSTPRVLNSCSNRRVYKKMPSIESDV
# Procedure text: NMDA potentiation, whole-cell patch-clamp in HEK cells
# Format: cell-based
# Test context: compound 0.1 uM, currents evoked by 30 μM NMDA and 5.0 μM Glycine, holding potential −80 mV
# NMDA 1a2A (%) Potentiation 0.1 uM per entry
The answer is to be given in %; state only the numeric part.

What value of NMDA 1a2A (%) Potentiation 0.1 uM on NMDA receptor (GRIN1/GRIN2A subunits) (Homo sapiens, UniProt Q05586+Q12879) does C[C@H](CC(F)(F)CO)[C@H]1CC[C@H]2[C@@H]3CC=C4C[C@@H](O)CC[C@]4(C)[C@H]3CC[C@]12C have?
31

What value of NMDA 1a2A (%) Potentiation 0.1 uM on NMDA receptor (GRIN1/GRIN2A subunits) (Homo sapiens, UniProt Q05586+Q12879) does CC(C)[C@H](O)CC[C@@H](C)[C@H]1CC[C@H]2[C@@H]3CC=C4C[C@@H](O)CC[C@]4(C)[C@H]3CC[C@]12C have?
82

What value of NMDA 1a2A (%) Potentiation 0.1 uM on NMDA receptor (GRIN1/GRIN2A subunits) (Homo sapiens, UniProt Q05586+Q12879) does C[C@H](CCC(C)(C)O)[C@H]1CC[C@H]2[C@@H]3CC[C@H]4C[C@@H](O)CC[C@]4(C)[C@H]3CC[C@]12C have?
18

* * *

# Tested system: NMDA receptor (GRIN1/GRIN2A subunits) (Homo sapiens, UniProt Q05586+Q12879)
# Construct: expressed in transfected cells
# Procedure text: NMDA potentiation, whole-cell patch-clamp in HEK cells
# Assay type: cell-based
# Test context: compound 1 uM, currents evoked by 30 μM NMDA and 5.0 μM Glycine, holding potential −80 mV
Reported metric: NMDA 1a2A (%) Potentiation 1 uM
The answer is to be given in %; state only the numeric part.

In the examples that follow, each entry is paired with its recorded NMDA 1a2A (%) Potentiation 1 uM.
COC[C@]1(O)CC[C@@]2(C)[C@@H](CC[C@@H]3[C@@H]2CC[C@]2(C)[C@@H]([C@H](C)CCC(C)(C)O)CC[C@@H]32)C1 : 110
CC[C@@]1(O)CC[C@@]2(C)C(=CC[C@H]3[C@@H]4CC[C@H]([C@H](C)CCC(C)(C)O)[C@@]4(C)CC[C@@H]32)C1 : 139
C[C@H](CCC(C)(C)O)[C@H]1CC[C@H]2[C@@H]3CC=C4C[C@@](C)(O)CC[C@]4(C)[C@H]3CC[C@]12C : 348

Which NMDA 1a2A (%) Potentiation 1 uM reading was recorded for the compound C[C@H](CCC(C)(C)O)[C@H]1CC[C@H]2[C@@H]3CC=C4C[C@@H](O)CC[C@@H]4[C@H]3CC[C@]12C ?
66

* * *

# Tested system: NMDA receptor (GRIN1/GRIN2A subunits) (Homo sapiens, UniProt Q05586+Q12879)
# Construct: expressed in transfected cells
# Procedure text: NMDA potentiation, whole-cell patch-clamp in HEK cells
# Format: cell-based
# Test context: compound 0.1 uM, currents evoked by 30 μM NMDA and 5.0 μM Glycine, holding potential −80 mV
Reported metric: NMDA 1a2A (%) Potentiation 0.1 uM
The answer is to be given in %; state only the numeric part.

In the examples that follow, each entry is paired with its recorded NMDA 1a2A (%) Potentiation 0.1 uM.
C[C@H](CC(C)(C)O)[C@H]1CC[C@H]2[C@@H]3CC=C4C[C@@H](O)CC[C@]4(C)[C@H]3CC[C@]12C : −5
C[C@H](CCC1(O)CC1)[C@H]1CC[C@H]2[C@@H]3CC=C4C[C@@H](O)CC[C@]4(C)[C@H]3CC[C@]12C : 74

Which NMDA 1a2A (%) Potentiation 0.1 uM reading was recorded for the compound CC(C)(O)COC[C@H]1CCC2C3CC=C4C[C@@](C)(O)CC[C@]4(C)C3CC[C@@]21C (stereo partly shown) ?
−5

Which NMDA 1a2A (%) Potentiation 0.1 uM reading was recorded for the compound C[C@H](CCC(C)(C)O)[C@H]1CC[C@H]2[C@@H]3CC[C@@H]4C[C@@](O)(C(F)(F)F)CC[C@]4(C)[C@H]3CC[C@]12C ?
9

Which NMDA 1a2A (%) Potentiation 0.1 uM reading was recorded for the compound CC[C@]1(O)CC[C@@]2(C)C(=CC[C@H]3[C@@H]4CC[C@H]([C@H](C)CCC(C)(C)O)[C@@]4(C)CC[C@@H]32)C1 ?
181

Which NMDA 1a2A (%) Potentiation 0.1 uM reading was recorded for the compound CNC(C)(C)CC[C@@H](C)[C@H]1CC[C@H]2[C@@H]3CC=C4C[C@@H](O)CC[C@]4(C)[C@H]3CC[C@]12C ?
25

Which NMDA 1a2A (%) Potentiation 0.1 uM reading was recorded for the compound C[C@H](CCC(C)(C)O)[C@H]1CC[C@H]2[C@@H]3CC=C4C[C@@H](O)CC[C@@H]4[C@H]3CC[C@]12C ?
28
